Tested on: PC-3 (prostate cancer)
Test: MTT antiproliferative assay, PC-3
Assay type: cell-based
Conditions: 48 h incubation
Label t when IC50 is strictly below 30 µM; at or above that, label f.

Check out these entries, answers already filled in.
COMPOUND: Cc1ccc(NC(=O)Nc2nnc(Sc3ncnc4sc5c(c34)CCN(Cc3ccncc3)C5)s2)cc1Cl [Compound 11w]
LABEL_VALUE: t
--
COMPOUND: O=C(Nc1cccc(C(F)(F)F)c1)Nc1nnc(Sc2ncnc3sc4c(c23)CCN(Cc2ccncc2)C4)s1 [Compound 11x]
LABEL_VALUE: f
--
COMPOUND: Cc1ccc(NC(=O)Nc2nnc(Sc3ncnc4sc5c(c34)CCN(Cc3ccncc3)C5)s2)cc1 [Compound 11n]
LABEL_VALUE: t
--
COMPOUND: Cc1ccc(NC(=O)Nc2nnc(Sc3ncnc4sc5c(c34)CCN(Cc3ccccc3)C5)s2)cc1Cl [Compound 11i]
LABEL_VALUE: f
--
COMPOUND: O=C(Nc1ccc(Cl)c(Cl)c1)Nc1nnc(Sc2ncnc3sc4c(c23)CCN(Cc2ccccc2)C4)s1 [Compound 11h]
LABEL_VALUE: f
--
COMPOUND: O=C(Nc1ccc(Cl)cc1)Nc1nnc(Sc2ncnc3sc4c(c23)CCN(Cc2ccccc2)C4)s1 [Compound 11g]
LABEL_VALUE: f

Lab note: IC50 threshold 30 µM. Does this compound come in strictly under it? O=C(Nc1nnc(Sc2ncnc3sc4c(c23)CCN(Cc2ccncc2)C4)s1)Nc1ccccc1Cl [Compound 11s] t

Lab note: IC50 threshold 30 µM. Does this compound come in strictly under it? Cc1ccc(NC(=O)Nc2nnc(Sc3ncnc4sc5c(c34)CCN(Cc3ccccc3)C5)s2)cc1 [Compound 11c] f
